Provenance of the data: PubChem BioAssay (NCI)

System: SK-OV-3 ovarian
RUN_DESCRIPTION: NCI-60 one-dose screen, 48 h (100 = growth as untreated, 0 = no growth, -100 = all killed)
TEST_SETTINGS: 10 µM unless noted
Compounds without any hit were thinned out: in the full panel of roughly 83,000, 20% have a hit.

[
  {
    "COMPOUND": "COc1cc(C2NC(c3ccc(Cl)cc3)C(C)/C(=N/NC(N)=S)C2C)cc(OC)c1OC (stereo unspecified)",
    "growth, %": 101
  },
  {
    "COMPOUND": "O=C(CCc1nnc(SCc2ccccc2)s1)c1nc2ccccc2[nH]1",
    "growth, %": 103
  },
  {
    "COMPOUND": "COC(=O)[C@]12CC[C@@H](C)[C@H](C)[C@@H]1C1=CC[C@@H]3[C@@]4(C)C[C@@H](OC(=O)c5ccco5)[C@H](O)[C@@](C)(CO)[C@@H]4[C@H](O)C[C@@]3(C)[C@]1(C)CC2",
    "growth, %": -97.2
  },
  {
    "COMPOUND": "O=C1CC(C(F)(F)F)=NN1C(=O)c1nn(-c2ccc(Cl)cc2)cc1O",
    "growth, %": 75.4
  },
  {
    "COMPOUND": "O=C(Nc1nc(-c2ccccc2)cs1)c1cc(O)c(O)c(O)c1",
    "growth, %": 70
  },
  {
    "COMPOUND": "O=c1[nH]c(=O)n(C2CC(O)C(CO)O2)cc1C(F)(F)F (stereo unspecified)",
    "growth, %": 74.3
  },
  {
    "COMPOUND": "CCCCCCCCSc1ncnc2c1ncn2CO",
    "growth, %": 83.1
  },
  {
    "COMPOUND": "Clc1ccc(CCC(Cn2ccnc2)Sc2c(Cl)cccc2Cl)cc1 (stereo unspecified)",
    "growth, %": 91.1
  },
  {
    "COMPOUND": "COc1ccc2c(c1)C(=O)/C(=C/c1cccc(OCC(=O)c3ccccc3)c1)CC2",
    "growth, %": 120
  },
  {
    "COMPOUND": "Cc1nn(-c2ccccc2)c2nc3c(nc12)C(=O)CCC3",
    "growth, %": 99.7
  },
  {
    "COMPOUND": "OCc1nnn(-c2ccccc2)c1CO",
    "growth, %": 129
  },
  {
    "COMPOUND": "O=C(OC[C@H]1O[C@H](OC(=O)c2cc(O)c(O)c(OC(=O)c3cc(O)c(O)c(O)c3)c2)[C@H](OC(=O)c2cc(O)c(O)c(OC(=O)c3cc(O)c(O)c(O)c3)c2)[C@@H](OC(=O)c2cc(O)c(O)c(OC(=O)c3cc(O)c(O)c(O)c3)c2)[C@@H]1OC(=O)c1cc(O)c(O)c(OC(=O)c2cc(O)c(O)c(O)c2)c1)c1cc(O)c(O)c(OC(=O)c2cc(O)c(O)c(O)c2)c1",
    "growth, %": 49.8
  },
  {
    "COMPOUND": "Clc1ccc(-n2cnc3c(Cl)ncnc32)cc1Cl",
    "growth, %": 99.8
  },
  {
    "COMPOUND": "O=C(NCCCO)c1cc(Cl)ccc1O",
    "growth, %": 40.6
  },
  {
    "COMPOUND": "CC(c1ccccn1)C(C)(O)C(C)c1ccccn1 (stereo unspecified)",
    "growth, %": 114
  },
  {
    "COMPOUND": "CCOc1cc(C(C)(C)C)ccc1C1=N[C@H](c2ccc(Cl)cc2)[C@H](c2ccc(Cl)cc2)N1C(=O)N1CCN(CC#Cc2cccc3c2CN([C@@H]2CCC(=O)NC2=O)C3=O)CC1",
    "growth, %": 62.4
  },
  {
    "COMPOUND": "CCC1(c2ccccc2)Oc2ccccc2-n2c(C#N)c3ccccc3c2C1=O (stereo unspecified)",
    "growth, %": 91.4
  },
  {
    "COMPOUND": "CCC(CC)NCCCCCNc1cc(OC)cc2cccnc12",
    "growth, %": 97.7
  },
  {
    "COMPOUND": "CC[C@]1(O)CC2CN(CCc3c([nH]c4ccccc34)[C@@](C(=O)OC)(c3cc4c(cc3OC)N(C)[C@H]3[C@@](O)(C(=O)OC)[C@H](OC(C)=O)[C@]5(CC)C=CCN6CC[C@]43[C@@H]65)C2)C1 (stereo partly specified)",
    "growth, %": 6.74
  },
  {
    "COMPOUND": "CCOc1nc(-c2ccccc2)cc2c(O)c(-c3nnco3)[nH]c(=O)c12",
    "growth, %": 59.3
  },
  {
    "COMPOUND": "O=C1C(Cl)=C(N=Nc2c(Cl)c(O)c3ccccc3c2O)C(=O)c2ccccc21",
    "growth, %": 89.8
  },
  {
    "COMPOUND": "Cc1c(C(N)=O)sc2nc(SCC(=O)Nc3ccc(Cl)cc3)n(-c3ccccc3)c(=O)c12",
    "growth, %": 105
  },
  {
    "COMPOUND": "CC(C)COCC(CN(Cc1ccccc1)c1ccccc1)N1CCCC1 (stereo unspecified)",
    "growth, %": 74.9
  },
  {
    "COMPOUND": "Cc1c(C(N)=O)sc2ncn(CC(=O)Nc3ccc(Cl)cc3)c(=O)c12",
    "growth, %": 106
  },
  {
    "COMPOUND": "Cc1cc(C(C)(C)C)cc(C)c1CC1=NCCN1",
    "growth, %": 124
  },
  {
    "COMPOUND": "C=C1c2c(C)nn(-c3ccc(C#CCOC4OC(CO)C(O)C(O)C4O)cc3)c2N(C)C23C[C@H]1C1(C)c4c(C)nn(-c5ccc(C#CCOC6OC(CO)C(O)C(O)C6O)cc5)c4N(C)C(C)(C[C@H]12)C3 (stereo partly specified)",
    "growth, %": 15.3
  },
  {
    "COMPOUND": "Clc1cc(Cl)c(OCC#CI)cc1Cl",
    "growth, %": 102
  },
  {
    "COMPOUND": "COC1CC2CCC(C)C(O)(O2)C(=O)C(=O)N2CCCCC2C(=O)OC(C(C)CC2CCC(O)C(OC)C2)CC(=O)C(C)C=C(C)C(O)C(OC)C(=O)C(C)CC(C)/C=C/C=C/C=C1C (stereo unspecified)",
    "growth, %": 52.9
  },
  {
    "COMPOUND": "C/C(=N/N=C(N)N)c1ccc(Cl)cc1",
    "growth, %": 89.5
  },
  {
    "COMPOUND": "Cc1ccc2c(c1)C(=O)/C(=C/c1ncc([N+](=O)[O-])n1C)O2",
    "growth, %": 0.948
  },
  {
    "COMPOUND": "O=C1c2ccccc2C(=O)c2c1cccc2-n1nnc2ccccc21",
    "growth, %": 119
  },
  {
    "COMPOUND": "c1ccc2cc(C[n+]3ccn(CCCCCCCn4cc[n+](Cc5ccc6ccccc6c5)c4)c3)ccc2c1",
    "growth, %": 36.1
  },
  {
    "COMPOUND": "CCC1=C(c2ccc(OC)cc2)C(C)(C)Oc2c1ccc(O)c2CN1CCCC1",
    "growth, %": 73.9
  },
  {
    "COMPOUND": "CCCCCCCC/C=C/CCCCCCCC1=NC(C)(C)CN1CC(C)O (stereo unspecified)",
    "growth, %": 88.5
  },
  {
    "COMPOUND": "Cn1cc(-c2nc(-c3c[nH]c4ncccc34)cs2)c2cccnc21",
    "growth, %": 62
  },
  {
    "COMPOUND": "COc1ccc(-c2cc(Cc3cccs3)c(=O)n(Cn3ccc4ccccc43)n2)cc1",
    "growth, %": 106
  }
]
